- Type: in vivo, human
- Applied Conditions: human, plasma, oral, Vd/F, rivaroxaban 10 mg + erythromycin 500 mg tid; normal renal function; arithmetic mean (SD)
Recorded Metric: Vd/F (L)
// note: answer is a bare numeric in L

QUERY: Which Vd/F is reported for this molecule? O=C(NC[C@H]1CN(c2ccc(N3CCOCC3=O)cc2)C(=O)O1)c1ccc(Cl)s1 [Rivaroxaban, rivaroxaban]
RESULT: 44.2

====

- Format: in vivo, human
- Applied Conditions: human, plasma, oral, 10 mg, Cmax, geometric mean, Normal RF; rivaroxaban 10 mg
Recorded Metric: Cmax (ng/mL)
// units = ng/mL; emit number, no label

QUERY: Sample O=C(NC[C@H]1CN(c2ccc(N3CCOCC3=O)cc2)C(=O)O1)c1ccc(Cl)s1 [Rivaroxaban, rivaroxaban] — what was its Cmax?
RESULT: 178
